This collection of values is drawn from patent US20060223757.

# TARGET OR TEST SYSTEM: E3 (six-finger Sp1C framework protein) (synthetic construct)
# Sequence (chain, as listed by the source): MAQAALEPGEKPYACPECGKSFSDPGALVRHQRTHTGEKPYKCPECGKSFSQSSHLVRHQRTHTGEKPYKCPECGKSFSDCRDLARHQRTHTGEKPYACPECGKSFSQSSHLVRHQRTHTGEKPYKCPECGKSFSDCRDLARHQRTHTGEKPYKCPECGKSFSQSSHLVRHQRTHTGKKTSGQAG
# TEST METHOD NOTES: EMSA; ±15%; about 30-fold lower affinity than E3 target
MEASURED ATTRIBUTE: Kd (nM)
A number alone suffices; assume nM.

**Query** Suppose we examine the binder E2C target site (erbB-2 5'-UTR) (dsDNA) DNA 1: GGGGCCGGAGCCGCAGTG DNA 2: CACTGCGGCTCCGGCCCC ; what Kd value has been reported?
**Result** 10
